Test system: Phosphorylated Ribosomal Protein S6 (RPS6) in THP-1 cells
Test: THP-1 RPS6 ELISA Assay
Format: cell-based, Human
Settings: serum starved, 2 hours compound, 10 nM MCP-1 for 15 minutes, Phospho-RPS6 ELISA, read-out: PI3Kγ_THP1_RPS6_ELISA IC50
Procedure: Example A. THP-1 RPS6 ELISA Assay To measure the Phosphorylated Ribosomal Protein S6 (RPS6) in cell lysates, THP-1 cells (Human Acute Monocytic Leukemia) are purchased from ATCC (Manassas, VA) and maintained in RPMI with 10% FBS (Gibco/Life Technologies, Carlsbad, CA). […] The plate is measured using a microplate reader (SpectraMax M5—Molecular Devices, LLC Sunnyvale, CA) set to 450 nm with a wavelength correction of 540. […]
pIC50: −log10 of the molar value.
QUANTITY MEASURED: pIC50

- COMPOUND: "Cc1ccc(C(O)(CO)C(F)(F)F)cc1-c1cnc(N)c(-n2nccn2)n1 (centres unmarked) [Example 14]"
  pIC50: "> 7.00"

Attention now shifts to the item below.
Q) Form field: reported pIC50 of Cc1ccc([C@](O)(CO)C(F)F)cc1-c1cnc(N)c(C(=O)N2CCC[C@@H]2CO)n1 [Example 45]
A) 6.30 to 7.00

###

Target: PI3Kδ (p110δ/p85α) Recombinant Human Protein (Homo sapiens (Human), UniProt O00329)
Sequence (O00329 whole entry): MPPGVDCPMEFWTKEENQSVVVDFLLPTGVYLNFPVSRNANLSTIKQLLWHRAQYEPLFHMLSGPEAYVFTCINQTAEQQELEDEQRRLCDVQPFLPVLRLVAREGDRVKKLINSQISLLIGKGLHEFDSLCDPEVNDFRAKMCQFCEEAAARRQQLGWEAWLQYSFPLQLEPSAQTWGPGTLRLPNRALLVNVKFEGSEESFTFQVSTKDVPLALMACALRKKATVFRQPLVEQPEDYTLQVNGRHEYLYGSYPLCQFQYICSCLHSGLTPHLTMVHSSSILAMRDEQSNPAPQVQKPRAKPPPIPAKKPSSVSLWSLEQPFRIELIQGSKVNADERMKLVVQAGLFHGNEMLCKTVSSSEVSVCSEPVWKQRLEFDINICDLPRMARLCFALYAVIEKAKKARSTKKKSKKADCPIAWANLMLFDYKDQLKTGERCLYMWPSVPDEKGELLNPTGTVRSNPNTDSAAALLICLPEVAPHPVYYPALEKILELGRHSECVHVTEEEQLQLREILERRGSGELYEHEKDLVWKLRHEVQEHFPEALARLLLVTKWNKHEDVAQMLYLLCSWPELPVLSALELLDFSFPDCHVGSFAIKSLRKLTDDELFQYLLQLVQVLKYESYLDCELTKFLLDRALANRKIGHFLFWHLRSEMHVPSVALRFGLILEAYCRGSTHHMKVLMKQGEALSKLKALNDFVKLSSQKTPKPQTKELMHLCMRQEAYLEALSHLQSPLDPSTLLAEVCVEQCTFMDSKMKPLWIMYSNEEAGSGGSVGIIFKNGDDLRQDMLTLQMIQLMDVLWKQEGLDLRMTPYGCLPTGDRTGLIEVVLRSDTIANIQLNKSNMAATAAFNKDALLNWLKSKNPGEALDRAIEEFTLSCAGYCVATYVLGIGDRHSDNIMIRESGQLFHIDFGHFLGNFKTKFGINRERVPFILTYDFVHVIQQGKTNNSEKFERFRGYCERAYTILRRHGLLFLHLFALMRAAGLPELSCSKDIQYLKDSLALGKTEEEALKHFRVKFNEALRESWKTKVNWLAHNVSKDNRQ
Sequence (P27986 whole entry partner): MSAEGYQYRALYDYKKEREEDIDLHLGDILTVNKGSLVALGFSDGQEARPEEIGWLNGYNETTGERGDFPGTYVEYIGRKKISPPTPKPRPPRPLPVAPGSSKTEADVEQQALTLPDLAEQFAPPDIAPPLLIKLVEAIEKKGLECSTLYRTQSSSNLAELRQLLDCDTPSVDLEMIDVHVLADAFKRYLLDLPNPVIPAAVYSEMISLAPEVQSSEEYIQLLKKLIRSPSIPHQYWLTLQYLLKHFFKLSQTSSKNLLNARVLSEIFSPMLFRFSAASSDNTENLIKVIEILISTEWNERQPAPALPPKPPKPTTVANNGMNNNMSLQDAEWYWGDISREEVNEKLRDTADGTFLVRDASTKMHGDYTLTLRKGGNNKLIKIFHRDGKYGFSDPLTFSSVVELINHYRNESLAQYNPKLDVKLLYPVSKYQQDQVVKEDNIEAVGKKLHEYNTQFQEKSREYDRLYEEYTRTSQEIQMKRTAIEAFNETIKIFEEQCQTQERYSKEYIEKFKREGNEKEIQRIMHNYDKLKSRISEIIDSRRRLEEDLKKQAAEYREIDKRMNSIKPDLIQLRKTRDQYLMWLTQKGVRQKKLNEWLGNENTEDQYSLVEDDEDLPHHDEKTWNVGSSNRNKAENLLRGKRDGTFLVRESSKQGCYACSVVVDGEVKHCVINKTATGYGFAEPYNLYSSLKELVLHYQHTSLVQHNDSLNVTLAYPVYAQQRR
Experiment: PI3Kδ Scintillation Proximity Assay
Details: 20 μM PIP2, 2 μM ATP, SPA
pIC50: −log10 of the molar value.
# pIC50 per entry

- COMPOUND: "Cc1ncc(-c2nc(-c3cc(C(O)(CO)C(F)(F)F)ccc3C)cnc2N)s1 (stereo not shown)"
  MEAS VALUE: "≥ 7.00"

Q) Entry under review: Cc1ccc([C@](O)(CO)C(F)F)cc1-c1cnc(N)c(C(=O)N2CCC[C@@H]2CO)n1 . Reported pIC50?
A) 5.70 to 6.30

Q) Bench note: what pIC50 did Cc1cc(-c2nc(-c3cc(C(O)(CO)C(F)(F)F)ccc3C)cnc2N)sn1 (stereo not shown) show?
A) ≥ 7.00

Q) Any idea what its pIC50 is? The compound is Cc1ccc(C(O)(C(C)(C)O)C(F)(F)F)cc1-c1cnc(N)c(C(=O)NC2CCOCC2)n1 (stereo not shown)
A) 6.30 to 7.00
